Target Entity: CHRM2 (Homo sapiens)
Construct: expressed in transfected cells
Sequence (P08172 whole entry): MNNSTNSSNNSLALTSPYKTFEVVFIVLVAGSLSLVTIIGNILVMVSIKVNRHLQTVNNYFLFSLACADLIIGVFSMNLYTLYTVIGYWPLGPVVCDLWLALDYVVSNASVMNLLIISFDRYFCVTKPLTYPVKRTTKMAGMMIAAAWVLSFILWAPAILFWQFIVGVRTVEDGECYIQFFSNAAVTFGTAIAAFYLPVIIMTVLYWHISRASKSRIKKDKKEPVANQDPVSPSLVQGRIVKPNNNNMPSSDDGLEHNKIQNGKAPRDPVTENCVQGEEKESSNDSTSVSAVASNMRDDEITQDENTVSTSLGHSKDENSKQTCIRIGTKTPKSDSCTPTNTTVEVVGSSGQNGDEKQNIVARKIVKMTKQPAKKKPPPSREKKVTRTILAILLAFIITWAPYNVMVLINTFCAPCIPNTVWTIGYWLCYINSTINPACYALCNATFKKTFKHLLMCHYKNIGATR
Experimental Details: SAFETYScan GPCR cAMP, Antagonist
Type: cell-based
Assay Conditions: read-out: RC50 (IC50)
Measured Quantity: IC50

In one line, give reported IC50 of the entry C[C@H]1C[C@@H](O)CN(c2ncc(Cl)c(Nc3ccc4c(c3)c3c(c(=O)n4C)OCC(F)(F)[C@H](C4CC4)N3)n2)C1 [12a CCT373566] .
> 10 µM

----------
Experimental Details: in vitro
Assay type: in vitro ADME
Assay Conditions: PAMPA; pH 7.4, 10 µM, 16 h at 30 °C
Measured Quantity: Papp
Don't forget the unit after the number, please.

In one line, give reported Papp of the entry C[C@H]1C[C@@H](O)CN(c2ncc(Cl)c(Nc3ccc4c(c3)n(CCC(C)(C)O)c(=O)n4C)n2)C1 (relative stereo) .
23 ×10⁻⁶ cm/s

----------
BCL6 TR-FRET pIC50 mean reference
Target Entity: human BCL6 BTB domain (Homo sapiens, UniProt P41182)
Assay Conditions: mean of replicates

C[C@@H]1C[C@@H](O)CN(c2ncc(Cl)c(Nc3ccc4c(c3)c3c(c(=O)n4C)OCC(F)(F)[C@H](C4CC4)N3)n2)C1 [13a] :: 8.0053
C[C@@H]1C[C@H](O)CN(c2ncc(Cl)c(Nc3ccc4c(c3)c3c(c(=O)n4C)OCC(F)(F)[C@H](C4CC4)N3)n2)C1 [12b CCT373567] :: 8.5554
C[C@H]1CCCN(c2ncc(Cl)c(Nc3ccc4c(c3)c3c(c(=O)n4C)OCC(F)(F)[C@H](C4CC4)N3)n2)C1 [15a] :: 7.4377
C[C@H]1C[C@@H](N(C)C)CN(c2ncc(Cl)c(Nc3ccc4c(c3)c3c(c(=O)n4C)OCC(F)(F)[C@H](C4CC4)N3)n2)C1 [11a] :: 8.4757
C[C@@H]1C[C@H](N(C)C)CN(c2ncc(Cl)c(Nc3ccc4c(c3)c3c(c(=O)n4C)OCC(F)(F)[C@H](C4CC4)N3)n2)C1 [11b] :: 8.4399

In one line, give reported BCL6 TR-FRET pIC50 mean of the entry Cn1c(=O)c2c(c3cc(Nc4nc(N5CCC(F)(F)[C@@H](O)C5)ncc4Cl)ccc31)N[C@@H](C1CC1)C(F)(F)CO2 (single isomer, unassigned) .
8.4571

In one line, give reported BCL6 TR-FRET pIC50 mean of the entry C[C@H]1C[C@H](O)CN(c2ncc(Cl)c(Nc3ccc4c(c3)c3c(c(=O)n4C)OCC(F)(F)[C@H](C4CC4)N3)n2)C1 [13b] .
8.2236

In one line, give reported BCL6 TR-FRET pIC50 mean of the entry CC(=O)N[C@H]1C[C@@H](C)CN(c2ncc(Cl)c(Nc3ccc4c(c3)c3c(c(=O)n4C)OCC(F)(F)[C@H](C4CC4)N3)n2)C1 [10b] .
8.5388

In one line, give reported BCL6 TR-FRET pIC50 mean of the entry Cn1c(=O)n(CCC(C)(C)O)c2cc(Nc3nc(N4CCC(F)(F)C(O)C4)ncc3Cl)ccc21 (centres unmarked) .
6.6241

In one line, give reported BCL6 TR-FRET pIC50 mean of the entry Cn1c(=O)c2c(c3cc(Nc4nc(N5CCC(F)(F)[C@H](O)C5)ncc4Cl)ccc31)N[C@@H](C1CC1)C(F)(F)CO2 (single isomer, unassigned) .
8.3342

In one line, give reported BCL6 TR-FRET pIC50 mean of the entry C[C@H]1C[C@@H](O)CN(c2ncc(Cl)c(Nc3ccc4c(c3)c3c(c(=O)n4C)OCC(F)(F)[C@H](C4CC4)N3)n2)C1 [12a CCT373566] .
8.6638

----------
Target Entity: HTR2B (Homo sapiens, UniProt P41595)
Sequence (P41595 whole entry): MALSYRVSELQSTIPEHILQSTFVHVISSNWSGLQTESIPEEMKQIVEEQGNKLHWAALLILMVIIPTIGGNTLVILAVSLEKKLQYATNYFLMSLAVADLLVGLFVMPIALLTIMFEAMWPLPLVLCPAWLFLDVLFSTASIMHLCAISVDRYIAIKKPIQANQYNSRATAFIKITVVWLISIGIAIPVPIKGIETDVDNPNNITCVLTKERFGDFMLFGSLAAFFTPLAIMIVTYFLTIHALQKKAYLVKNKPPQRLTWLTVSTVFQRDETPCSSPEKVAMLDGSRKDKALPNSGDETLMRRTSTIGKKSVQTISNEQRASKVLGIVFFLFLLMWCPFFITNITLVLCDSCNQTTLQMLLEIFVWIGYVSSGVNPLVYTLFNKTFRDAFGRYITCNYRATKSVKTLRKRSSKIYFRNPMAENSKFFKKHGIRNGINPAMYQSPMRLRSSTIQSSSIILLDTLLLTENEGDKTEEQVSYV
Experimental Details: SAFETYScan GPCR Calcium Flux, Agonist
Assay Conditions: read-out: RC50 (EC50)
Measured Quantity: EC50

In one line, give reported EC50 of the entry C[C@H]1C[C@@H](O)CN(c2ncc(Cl)c(Nc3ccc4c(c3)c3c(c(=O)n4C)OCC(F)(F)[C@H](C4CC4)N3)n2)C1 [12a CCT373566] .
> 10 µM

----------
DC50 reference
Target Entity: endogenous BCL6 in OCI-Ly1 cells (Homo sapiens)
Experimental Details: cell-based
Assay Conditions: read-out: MSD degrader assay [OCI-Ly1] DC50; geometric mean; OCI-Ly1 cells, 2 h incubation

Cn1c(=O)c2c(c3cc(Nc4nc(N5CCC(F)(F)[C@H](O)C5)ncc4Cl)ccc31)N[C@@H](C1CC1)C(F)(F)CO2 (single isomer, unassigned) :: > 2000 nM
C[C@@H]1C[C@@H](O)CN(c2ncc(Cl)c(Nc3ccc4c(c3)c3c(c(=O)n4C)OCC(F)(F)[C@H](C4CC4)N3)n2)C1 [13a] :: > 2000 nM

Attention now shifts to the item below.
In one line, give reported DC50 of the entry Cn1c(=O)c2c(c3cc(Nc4nc(N5CCC(F)(F)[C@@H](O)C5)ncc4Cl)ccc31)N[C@@H](C1CC1)C(F)(F)CO2 (single isomer, unassigned) .
7.1 nM

----------
half-life at 6 h reference
Experimental Details: In vivo pharmacokinetic study in Balb/C mice
Set-up: species or system mouse
Assay Conditions: mouse, in vivo, po, 5 mg/kg; female Balb/C mice
Could you give me the number in h? Just the number is fine.

C[C@H]1C[C@@H](O)CN(c2ncc(Cl)c(Nc3ccc4c(c3)c3c(c(=O)n4C)OCC(F)(F)[C@H](C4CC4)N3)n2)C1 [12a CCT373566] :: 1.15

In one line, give reported half-life at 6 h of the entry `C[C@@H]1CN(c2ncc(Cl)c(Nc3ccc4c(c3)n(CCC(C)(C)O)c(=O)n4C)n2)C[C@H](C)C1(F)F` .
1.4

----------
Experimental Details: in vitro
Format: in vitro ADME
Assay Conditions: BALB/c; mouse plasma, rapid equilibrium dialysis; read-out: mouse (BALB\c) PPB (converted)
Measured Quantity: fraction unbound
Enter the number alone.

C[C@@H]1CN(c2ncc(Cl)c(Nc3ccc4c(c3)n(CCC(C)(C)O)c(=O)n4C)n2)C[C@H](C)C1(F)F :: 0.0004

Attention now shifts to the item below.
In one line, give reported fraction unbound of the entry C[C@H]1C[C@@H](O)CN(c2ncc(Cl)c(Nc3ccc4c(c3)c3c(c(=O)n4C)OCC(F)(F)[C@H](C4CC4)N3)n2)C1 [12a CCT373566] .
0.0012

----------
Experimental Details: logD7.4 assay (Chrom log D method)
Type: physicochemical
Assay Conditions: reversed-phase HPLC on Phenomenex Luna C8 column, pH 7.4, read-out: Measured logD7.4
Measured Quantity: chromatographic logD
Enter the number alone.

For orientation, consider the following solved cases.
Cn1c(=O)n(CCC(C)(C)O)c2cc(Nc3nc(N4CCC(F)(F)C(O)C4)ncc3Cl)ccc21 (stereo not shown) [compound 3] :: 2.3
CC(=O)N[C@H]1C[C@@H](C)CN(c2ncc(Cl)c(Nc3ccc4c(c3)c3c(c(=O)n4C)OCC(F)(F)[C@H](C4CC4)N3)n2)C1 [10b] :: 2.8
C[C@@H]1C[C@@H](O)CN(c2ncc(Cl)c(Nc3ccc4c(c3)c3c(c(=O)n4C)OCC(F)(F)[C@H](C4CC4)N3)n2)C1 [13a] :: 3
Cn1c(=O)c2c(c3cc(Nc4nc(N5CCC(F)(F)[C@H](O)C5)ncc4Cl)ccc31)N[C@@H](C1CC1)C(F)(F)CO2 (single isomer, unassigned) [8b] :: 3
Cn1c(=O)c2c(c3cc(Nc4nc(N5CCC(F)(F)[C@@H](CO)C5)ncc4Cl)ccc31)N[C@@H](C1CC1)C(F)(F)CO2 [9a] :: 3.2
C[C@H]1C[C@@H](O)CN(c2ncc(Cl)c(Nc3ccc4c(c3)c3c(c(=O)n4C)OCC(F)(F)[C@H](C4CC4)N3)n2)C1 [12a CCT373566] :: 3
C[C@H]1CCCN(c2ncc(Cl)c(Nc3ccc4c(c3)c3c(c(=O)n4C)OCC(F)(F)[C@H](C4CC4)N3)n2)C1 [15a] :: 4.9
C[C@@H]1C[C@H](N(C)C)CN(c2ncc(Cl)c(Nc3ccc4c(c3)c3c(c(=O)n4C)OCC(F)(F)[C@H](C4CC4)N3)n2)C1 [11b] :: 3.3
C[C@H]1C[C@@H](N(C)C)CN(c2ncc(Cl)c(Nc3ccc4c(c3)c3c(c(=O)n4C)OCC(F)(F)[C@H](C4CC4)N3)n2)C1 [11a] :: 3.3
C[C@@H]1CN(c2ncc(Cl)c(Nc3ccc4c(c3)n(CCC(C)(C)O)c(=O)n4C)n2)C[C@H](C)C1(F)F [2 CCT369260] :: 4.3

In one line, give reported chromatographic logD of the entry CC(=O)N[C@@H]1C[C@H](C)CN(c2ncc(Cl)c(Nc3ccc4c(c3)c3c(c(=O)n4C)OCC(F)(F)[C@H](C4CC4)N3)n2)C1 [10a] .
2.8

In one line, give reported chromatographic logD of the entry C[C@@H]1CCCN(c2ncc(Cl)c(Nc3ccc4c(c3)c3c(c(=O)n4C)OCC(F)(F)[C@H](C4CC4)N3)n2)C1 [15b] .
5

In one line, give reported chromatographic logD of the entry Cn1c(=O)c2c(c3cc(Nc4nc(N5CCC(F)(F)[C@H](CO)C5)ncc4Cl)ccc31)N[C@@H](C1CC1)C(F)(F)CO2 [9b] .
3.2
